The values you see were collected from ChEMBL document CHEMBL1124997.

Some compounds, each annotated with its measured kinact.
Target: UniProtKB P11511
Assay: Time-dependent irreversible inactivation of human placental Cytochrome P450 19A1
Give the value; after it, write the unit.

# lookup: C[C@]12CCC(=O)C=C1C[C@@H](Sc1ccc(NC(=O)CBr)cc1)C1C2CC[C@]2(C)C(=O)CCC12 (some centres undefined) on UniProtKB P11511, kinact = 0.00247 s⁻¹

# lookup: C[C@]12CCC3C(CCC4=CC(=O)CC[C@@]43C(F)F)C1CCC2=O (some centres undefined) on UniProtKB P11511, kinact = 0.000383 s⁻¹

# lookup: C[C@]12CCC(=O)C=C1C[C@@H](Sc1ccc(N=[N+]=[N-])cc1)C1C2CC[C@]2(C)C(=O)CCC12 (some centres undefined) on UniProtKB P11511, kinact = 0.00166 s⁻¹

# lookup: C[C@]12CCC(=O)C=C1[C@H](Br)CC1C2CC[C@@]2(C)C1CC[C@@H]2OC(=O)CBr (some centres undefined) on UniProtKB P11511, kinact = 0.000457 s⁻¹

* * *

Target protein (sequence): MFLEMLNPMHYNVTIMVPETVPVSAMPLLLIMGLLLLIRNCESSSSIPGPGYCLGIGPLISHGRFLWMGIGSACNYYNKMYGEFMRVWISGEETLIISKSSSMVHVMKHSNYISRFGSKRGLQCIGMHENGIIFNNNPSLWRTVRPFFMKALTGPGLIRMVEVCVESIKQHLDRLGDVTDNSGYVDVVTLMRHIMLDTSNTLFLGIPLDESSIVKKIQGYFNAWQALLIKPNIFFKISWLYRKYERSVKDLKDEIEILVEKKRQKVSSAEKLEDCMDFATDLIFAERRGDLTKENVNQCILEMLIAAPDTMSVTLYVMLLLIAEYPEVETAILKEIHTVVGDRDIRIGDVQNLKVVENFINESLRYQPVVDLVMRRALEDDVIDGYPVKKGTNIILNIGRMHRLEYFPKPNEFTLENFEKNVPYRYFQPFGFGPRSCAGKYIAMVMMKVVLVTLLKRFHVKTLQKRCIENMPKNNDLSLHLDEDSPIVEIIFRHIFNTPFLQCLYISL
experimental.readout: Ki (nM)
Express the result in nM but write the number alone.

Entry under test: Clc1ccc(C2c3ccc(Cl)cc3-c3ncncc32)cc1 (stereo unspecified) . Its Ki was 24

* * *

Target: Aromatase (Homo sapiens)
Sequence (P11511 whole entry): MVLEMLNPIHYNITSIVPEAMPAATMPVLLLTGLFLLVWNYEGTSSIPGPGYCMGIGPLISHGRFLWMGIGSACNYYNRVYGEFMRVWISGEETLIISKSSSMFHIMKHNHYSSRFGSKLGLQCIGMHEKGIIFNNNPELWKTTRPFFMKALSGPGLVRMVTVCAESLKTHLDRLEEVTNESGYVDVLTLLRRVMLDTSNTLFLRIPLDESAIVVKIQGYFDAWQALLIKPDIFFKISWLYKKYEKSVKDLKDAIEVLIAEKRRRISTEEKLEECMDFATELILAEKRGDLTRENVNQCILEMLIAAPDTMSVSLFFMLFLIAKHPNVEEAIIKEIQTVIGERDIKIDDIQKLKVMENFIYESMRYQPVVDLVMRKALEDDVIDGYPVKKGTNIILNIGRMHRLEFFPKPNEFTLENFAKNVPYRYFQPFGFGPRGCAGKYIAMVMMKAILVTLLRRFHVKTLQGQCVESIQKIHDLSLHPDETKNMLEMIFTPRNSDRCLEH
experimental.readout: IC50 (µM)
Express the result in µM but write the number alone.

# lookup: C[C@]12CCC3C(CCC4=C(O)C(=O)CC[C@@]43C(F)F)C1CCC2=O (stereo partly specified) on Aromatase (Homo sapiens), IC50 = 3.3
